test system: 186277-243-T-J2-PDC complex spheroid viability; assay: Anticancer human tumor 186277-243-T-J2-PDC patient-derived colon adenocarcinoma cell line growth inhibition [POLQ]; details: second compound 0.1 µM; first compound 0.1 µM; stronger effect = lower value
In this section, each of the compounds is paired with its reported viability, T/C.
Return type: number; implicit unit %.

CCc1cc2c(N3CCc4c(cc(Cn5ccnc5)cc4-c4cn(C)nc4C(F)(F)F)C3=O)cc(C)nc2c(OC)n1 + Cc1cccc(N(C)C(=O)C2C(O)CCN2c2nc(C)cc(C(F)(F)F)c2C#N)c1 = 91.3
CC[C@@]1(O)C(=O)OCc2c1cc1n(c2=O)Cc2cc3c(CN(C)C)c(O)ccc3nc2-1 + Cc1cccc(N(C)C(=O)C2C(O)CCN2c2nc(C)cc(C(F)(F)F)c2C#N)c1 = 49.6

**Q:** Name the recorded viability, T/C of the item COc1cc2cc(C(=O)CCC(=O)O)sc2cc1OC + COC1C(OC(N)=O)C(O)C(Oc2ccc3c(O)c(NC(=O)c4ccc(O)c(CC=C(C)C)c4)c(=O)oc3c2C)OC1(C)C in your answer.
**A:** 88

###

tested on: 186277-243-T-J2-PDC complex spheroid viability; test: Anticancer human tumor 186277-243-T-J2-PDC cell line growth inhibition [POLQ]; conditions: second compound 0.1 µM; first compound 0.316 µM; active = viability on the fitted dose curve at most 10% of control; inactive = the rest;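 note: spheroids exposed to compounds for seven days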
Please state which outcome applies, choosing from 1.0 for active, 0.0 for inactive

For orientation, consider the following solved cases.
Nc1ccn(C2OC(CO)C(O)C2(F)F)c(=O)n1 (stereo not given) + COC1C(OC(N)=O)C(O)C(Oc2ccc3c(O)c(NC(=O)c4ccc(O)c(CC=C(C)C)c4)c(=O)oc3c2C)OC1(C)C = 1.0
C#Cc1c(F)ccc2cc(O)cc(-c3ncc4c(N5CC6CCC(C5)N6)nc(OCC56CCCN5CC(F)C6)nc4c3F)c12 (stereo not given) + COC1C(OC(N)=O)C(O)C(Oc2ccc3c(O)c(NC(=O)c4ccc(O)c(CC=C(C)C)c4)c(=O)oc3c2C)OC1(C)C = 0.0
CC(C)n1c(=O)n(C)c2cnc3cc(F)c(-c4ccc(OCCCN5CCCCC5)nc4)cc3c21 + Cc1cccc(N(C)C(=O)C2C(O)CCN2c2nc(C)cc(C(F)(F)F)c2C#N)c1 = 0.0
COc1cccc(OCCCN)c1-c1cc(Nc2cnc(C#N)cn2)n[nH]1 + COC1C(OC(N)=O)C(O)C(Oc2ccc3c(O)c(NC(=O)c4ccc(O)c(CC=C(C)C)c4)c(=O)oc3c2C)OC1(C)C = 1.0

Let's switch to this compound now.
**Q:** Which outcome was assigned to COc1cccc2c1C(=O)c1c(O)c3c(c(O)c1C2=O)CC(O)(C(=O)CO)CC3OC1CC(N)C(O)C(C)O1 (stereo not given) + COC1C(OC(N)=O)C(O)C(Oc2ccc3c(O)c(NC(=O)c4ccc(O)c(CC=C(C)C)c4)c(=O)oc3c2C)OC1(C)C in this test?
**A:** 1.0

###

test system: 186277-243-T-J2-PDC complex spheroid viability; assay: Anticancer human tumor 186277-243-T-J2-PDC cell line growth inhibition [POLQ]; conditions: second compound 0.1 µM; first compound 1 µM; stronger effect = lower value;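 note: spheroids exposed to compounds for seven days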;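 for viability, T/C: 100% = DMSO vehicle control viability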
Ranges used to classify viability, T/C: 0 = under 50%, 1 = from 50% up to 90%, 2 = 90% and over

For orientation, consider the following solved cases.
C#Cc1c(F)ccc2cc(O)cc(-c3ncc4c(N5CC6CCC(C5)N6)nc(OCC56CCCN5CC(F)C6)nc4c3F)c12 (stereo not given) + Cc1cccc(N(C)C(=O)C2C(O)CCN2c2nc(C)cc(C(F)(F)F)c2C#N)c1 = 0
CC1COCCN1c1cc(-c2ccnn2C)c2ccnc(-c3ccn[nH]3)c2n1 (stereo not given) + Nc1ccc(C#CCN(C(=O)Cc2ncc(C(F)(F)F)cc2C(F)(F)F)c2ccc(F)cc2)nn1 = 0
COc1cc(C2c3cc4c(cc3C(OC3OC5COC(C)OC5C(O)C3O)C3COC(=O)C23)OCO4)cc(OC)c1O (stereo not given) + Nc1ccc(C#CCN(C(=O)Cc2ncc(C(F)(F)F)cc2C(F)(F)F)c2ccc(F)cc2)nn1 = 1
C#Cc1c(F)ccc2cc(O)cc(-c3ncc4c(N5CC6CCC(C5)N6)nc(OCC56CCCN5CC(F)C6)nc4c3F)c12 (stereo not given) + COC1C(OC(N)=O)C(O)C(Oc2ccc3c(O)c(NC(=O)c4ccc(O)c(CC=C(C)C)c4)c(=O)oc3c2C)OC1(C)C = 0
CCc1cc2c(N3CCc4c(cc(Cn5ccnc5)cc4-c4cn(C)nc4C(F)(F)F)C3=O)cc(C)nc2c(OC)n1 + Cc1cccc(N(C)C(=O)C2C(O)CCN2c2nc(C)cc(C(F)(F)F)c2C#N)c1 = 2
CCc1cc2c(N3CCc4c(cc(Cn5ccnc5)cc4-c4cn(C)nc4C(F)(F)F)C3=O)ccnc2c(OC)n1 + Nc1ccc(C#CCN(C(=O)Cc2ncc(C(F)(F)F)cc2C(F)(F)F)c2ccc(F)cc2)nn1 = 2
COc1cc(C2c3cc4c(cc3C(OC3OC5COC(C)OC5C(O)C3O)C3COC(=O)C23)OCO4)cc(OC)c1O (stereo not given) + Cc1cccc(N(C)C(=O)C2C(O)CCN2c2nc(C)cc(C(F)(F)F)c2C#N)c1 = 0
CCCS(=O)(=O)Nc1ccc(F)c(C(=O)c2c[nH]c3ncc(-c4ccc(Cl)cc4)cc23)c1F + COC1C(OC(N)=O)C(O)C(Oc2ccc3c(O)c(NC(=O)c4ccc(O)c(CC=C(C)C)c4)c(=O)oc3c2C)OC1(C)C = 1

**Q:** Would you mind sorting CCc1cc2c(N3CCc4c(cc(Cn5ccnc5)cc4-c4cn(C)nc4C(F)(F)F)C3=O)ccnc2c(OC)n1 + COC1C(OC(N)=O)C(O)C(Oc2ccc3c(O)c(NC(=O)c4ccc(O)c(CC=C(C)C)c4)c(=O)oc3c2C)OC1(C)C into the appropriate category?
**A:** 2

###

tested on: 186277-243-T-J2-PDC complex spheroid viability; assay: Anticancer human tumor 186277-243-T-J2-PDC cell line growth inhibition [POLQ]; conditions: curve of first compound; second compound 1 µM;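 note: spheroids exposed to compounds for seven days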
experimental-readout: pIC50
API: returns pIC50 as number; meaning -log10 of concentration in mol/L.

Use these answered entries as a reference point.
CCc1c2c(nc3ccc(O)cc13)-c1cc3c(c(=O)n1C2)COC(=O)[C@]3(O)CC + Nc1ccc(C#CCN(C(=O)Cc2ncc(C(F)(F)F)cc2C(F)(F)F)c2ccc(F)cc2)nn1 = 7.56
CC[C@@]1(O)C(=O)OCc2c1cc1n(c2=O)Cc2cc3c(CN(C)C)c(O)ccc3nc2-1 + COC1C(OC(N)=O)C(O)C(Oc2ccc3c(O)c(NC(=O)c4ccc(O)c(CC=C(C)C)c4)c(=O)oc3c2C)OC1(C)C = 7.31
O=c1[nH]cc(F)c(=O)[nH]1 + Cc1cccc(N(C)C(=O)C2C(O)CCN2c2nc(C)cc(C(F)(F)F)c2C#N)c1 = 5.01

Shifting focus to the compound that follows.
**Q:** Name the recorded pIC50 of the item CC1COCCN1c1cc(-c2ccnn2C)c2ccnc(-c3ccn[nH]3)c2n1 (stereo unspecified) + Nc1ccc(C#CCN(C(=O)Cc2ncc(C(F)(F)F)cc2C(F)(F)F)c2ccc(F)cc2)nn1 in your answer.
**A:** 7.12

###

test system: 186277-243-T-J2-PDC complex spheroid viability; assay: Anticancer human tumor 186277-243-T-J2-PDC cell line growth inhibition [POLQ]; conditions: second compound 0.1 µM; first compound 0.1 µM; stronger effect = lower value;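 note: spheroids exposed to compounds for seven days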;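 for viability, T/C: 100% = DMSO vehicle control viability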
experimental-readout: viability, T/C (%)
Return type: number; implicit unit %.

Use these answered entries as a reference point.
CNCc1ccc(-c2[nH]c3cc(F)cc4c3c2CCNC4=O)cc1 + COC1C(OC(N)=O)C(O)C(Oc2ccc3c(O)c(NC(=O)c4ccc(O)c(CC=C(C)C)c4)c(=O)oc3c2C)OC1(C)C = 96.3
Nc1ccn(C2OC(CO)C(O)C2(F)F)c(=O)n1 (stereo not given) + Nc1ccc(C#CCN(C(=O)Cc2ncc(C(F)(F)F)cc2C(F)(F)F)c2ccc(F)cc2)nn1 = 12.2
C=CC(=O)N1CCN(c2nc(=O)n(-c3c(C)ccnc3C(C)C)c3nc(-c4c(O)cccc4F)c(F)cc23)C(C)C1 (stereo not given) + COC1C(OC(N)=O)C(O)C(Oc2ccc3c(O)c(NC(=O)c4ccc(O)c(CC=C(C)C)c4)c(=O)oc3c2C)OC1(C)C = 91.8
C#Cc1c(F)ccc2cc(O)cc(-c3ncc4c(N5CC6CCC(C5)N6)nc(OCC56CCCN5CC(F)C6)nc4c3F)c12 (stereo not given) + COC1C(OC(N)=O)C(O)C(Oc2ccc3c(O)c(NC(=O)c4ccc(O)c(CC=C(C)C)c4)c(=O)oc3c2C)OC1(C)C = 48.1
CNCc1ccc(-c2[nH]c3cc(F)cc4c3c2CCNC4=O)cc1 + Cc1cccc(N(C)C(=O)C2C(O)CCN2c2nc(C)cc(C(F)(F)F)c2C#N)c1 = 98.9

**Q:** Retrieve viability, T/C on 186277-243-T-J2-PDC complex spheroid viability; query O=C(c1cc(Cc2n[nH]c(=O)c3ccccc23)ccc1F)N1CCN(C(=O)C2CC2)CC1 + Nc1ccc(C#CCN(C(=O)Cc2ncc(C(F)(F)F)cc2C(F)(F)F)c2ccc(F)cc2)nn1
**A:** 91.6

**Q:** Retrieve viability, T/C on 186277-243-T-J2-PDC complex spheroid viability; query O=c1[nH]cc(F)c(=O)[nH]1 + COC1C(OC(N)=O)C(O)C(Oc2ccc3c(O)c(NC(=O)c4ccc(O)c(CC=C(C)C)c4)c(=O)oc3c2C)OC1(C)C
**A:** 105

**Q:** Retrieve viability, T/C on 186277-243-T-J2-PDC complex spheroid viability; query COc1ccc([C@@H](O)c2cc(-c3ncnc4cc(N5CCOCC5)ccc34)c(F)cc2Cl)nn1 + COC1C(OC(N)=O)C(O)C(Oc2ccc3c(O)c(NC(=O)c4ccc(O)c(CC=C(C)C)c4)c(=O)oc3c2C)OC1(C)C
**A:** 92.2

**Q:** Retrieve viability, T/C on 186277-243-T-J2-PDC complex spheroid viability; query CC1COCCN1c1cc(-c2ccnn2C)c2ccnc(-c3ccn[nH]3)c2n1 (stereo not given) + Nc1ccc(C#CCN(C(=O)Cc2ncc(C(F)(F)F)cc2C(F)(F)F)c2ccc(F)cc2)nn1
**A:** 28.8

**Q:** Retrieve viability, T/C on 186277-243-T-J2-PDC complex spheroid viability; query C#Cc1c(F)ccc2cc(O)cc(-c3ncc4c(N5CC6CCC(C5)N6)nc(OCC56CCCN5CC(F)C6)nc4c3F)c12 (stereo not given) + Nc1ccc(C#CCN(C(=O)Cc2ncc(C(F)(F)F)cc2C(F)(F)F)c2ccc(F)cc2)nn1
**A:** 93.6
